Target: human adenosine A2B receptor (Homo sapiens (Human), UniProt P29275)
Sequence (P29275 whole entry): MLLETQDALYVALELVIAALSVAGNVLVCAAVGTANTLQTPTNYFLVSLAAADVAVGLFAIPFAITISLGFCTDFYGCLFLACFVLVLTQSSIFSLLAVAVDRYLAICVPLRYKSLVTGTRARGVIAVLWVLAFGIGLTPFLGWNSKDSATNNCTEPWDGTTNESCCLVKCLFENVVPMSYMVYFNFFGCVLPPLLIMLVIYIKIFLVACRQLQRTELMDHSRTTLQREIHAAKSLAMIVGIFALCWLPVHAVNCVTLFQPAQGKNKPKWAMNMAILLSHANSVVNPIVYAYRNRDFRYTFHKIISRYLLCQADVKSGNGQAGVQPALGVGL
Experiment: Adenosine A2B Receptor cyclic AMP GS Assay
Assay type: cell-based
Conditions: HEK-293 cells, agonist NECA 12 nM; read-out: A2B_cAMP_EC50
pEC50: −log10 of the molar value.
Property: pEC50; scope: individual compounds

compound	value_reported
N#Cc1cccc(-c2nc(N)c3nn(Cc4ncccc4F)nc3c2-c2ccncn2)c1 [Compound 14]	> 8.00
N#Cc1cccc(-c2nc(N)n3nc(Cn4nnc(-n5cccn5)n4)nc3c2-c2ccncn2)c1 [Compound 21]	> 8.00

QUERY: Field request: pEC50 | item: Cn1nccc1-c1c(-c2cccc(C#N)c2F)nc(N)c2nn(Cc3ccccn3)nc12 [Compound 16]
RESULT: > 8.00

====

Target: human adenosine A2B receptor (Homo sapiens (Human), UniProt P29275)
Assay: Adenosine A2B Receptor cyclic AMP GS Assay
Assay type: cell-based
readout_label: EC50

molecule	EC50
Cc1cc(-c2c(-c3cccc(C#N)c3)nc(N)c3nc(C(O)c4c(F)cccc4F)nn23)cc(C)n1 (single isomer, unassigned) [Compound 12]	10 to 100 nM

Okay, now this molecule:
QUERY: Field request: EC50 | item: N#Cc1cccc(-c2nc(N)c3nc(C(O)c4c(F)cccc4F)nn3c2-c2ccncn2)c1 (single isomer, unassigned) [Compound 10]
RESULT: < 10 nM

Just for reference, patent US20250041310A1 is where these values come from.
